Values from the supplement of paper PMC10567573

- Assay Notes: protein stability index of a GFP-peptide fusion (GPS, HEK-293T) (PSI 1-6); higher = more stable;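 note: 24-mer peptide tiles fused after GFP, lentivirally expressed, FACS-sorted into six equal bins by GFP/DsRed ratio, decoded by Illumina sequencing, PSI is the read-weighted mean bin number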
- Protocol Conditions: treatment: MLN4924 1 uM, 8 h; c terminus: a fixed tail appended
Each entry gets No if its protein stability index stays under 4, and Yes if its protein stability index is 4 or above.

Below are worked cases with known answers.
- Monomer Sequence: "KSRRKAALSSPRSRKNATQPPNAE [INTS3]"
  Assigned Class: "Yes"
- Monomer Sequence: "VVRGGEVVHRSDEQQHYFNTPFQL [PPTC7]"
  Assigned Class: "No"
- Monomer Sequence: "QGSAVTLKTSKMALSPSATAKRIN [CDC14A]"
  Assigned Class: "Yes"
- Monomer Sequence: "DVDEDEPGGLVGSADVVSPSGHSD [PPFIA4]"
  Assigned Class: "Yes"

### Prompt Identify whether the reported protein stability index of the following sequence is 4 or greater: KGFPGCKLGLHDNHWVPACHSFNR [FBXO34]
### Response No

### Prompt Check the entry STESDKPTTGRVYESDSSNHCMLS [C18orf25] : does protein stability index equal or exceed 4?
### Response Yes

### Prompt API: above_or_equal(metric=protein stability index, cutoff=4) for item TTKGTSEMSEKRGPTSSNPRKRHR [MLH1]
### Response Yes

### Prompt Has ADWTQGLPWRFEELLTCSHWPSFF [TEX19] a recorded protein stability index greater than or equal to 4?
### Response No

### Prompt Is protein stability index for LFTIPLLYRQHQAQIDQYVGLVTN [RTN2] at or above 4?
### Response No

### Prompt Identify whether the reported protein stability index of the following sequence is 4 or greater: DENLDRMVPISKQPKEKIQAIIES [NOL4L]
### Response Yes

### Prompt Kindly determine if protein stability index recorded for NIRPSSSGGYWVGMSTIRPNPGFS [APMAP] is above or exactly 4.
### Response No

### Prompt Check the entry FYMRTNPFYPEVELNFISVFWPQL [MMP1] : does protein stability index equal or exceed 4?
### Response No

### Prompt Exam item: decide whether the reported protein stability index for ENTAETITRVLYEVFIEWGISAKV [ZBED1] is at least 4.
### Response No

### Prompt Please check the record QHGFFRRTADEATNTGPAGSSAST [DYRK1B] and state if its protein stability index is at or above 4.
### Response Yes

### Prompt Determine whether this sequence has protein stability index no lower than 4: TIMSLASLLFVVMFIPETKGCSLE [SLC2A12]
### Response No

### Prompt I'd appreciate it if you could say whether TRVNLSSDTESTDLPSSTPVANSG [DLC1] has protein stability index at least equal to 4.
### Response Yes
